What Mouse Liver Microsomal Stability (% remaining) 30 min was measured for each of the following?
- test-conditions: microsomes, 0.5 h
Respond with the bare value in % remaining.

Name the reported Mouse Liver Microsomal Stability (% remaining) 30 min value associated with the compound COc1cc(-c2c(C#N)c(N)nc3c2c(C)nn3-c2ccc(F)cc2)ccc1O [Compound 10] 60

Next: COc1cc(-c2ccnc3c2c(C)nn3-c2ccc(C(F)(F)F)cc2)ccc1O [Compound 32] 45

Next: Cc1ccc(-n2nc(C)c3c(-c4ccc(O)c(O)c4)c(C#N)c(N)nc32)cc1C [Compound 4] 64

Next: Cc1nn(-c2ccc(Cl)cc2)c2nc(N)c(C#N)c(-c3ccc(O)c(O)c3)c12 [Compound 6] 90

Reference for the values: paper PMC8290212
